# System: HT-22
# EXPERIMENT: Neuroprotective activity against glutamate-induced toxicity in mouse HT22 cells after 24 hrs by MTS assay
# Assay type: functional, cell-based
The source made the active and inactive calls. The rule behind the calls is not given here.
Answer with one of the outcomes given here: active, inactive

Record request — test call for "O=C1Cc2c([nH]c3ccc([N+](=O)[O-])cc23)-c2ccccc2N1" active

Record request — test call for "O=C1NC(Nc2ccccc2)=N/C1=C\c1ccc2c(c1)OCO2" active

Record request — test call for "O=C(O)c1ccc2c(c1)nc(Nc1cccc(Cl)c1)c1ccncc12" inactive

Record request — test call for "Nc1ccc(C(=O)Nc2cccc(-c3nc(N4CCOCC4)c4oc5ncccc5c4n3)c2)cn1" inactive

FYI, the data here is from ChEMBL document CHEMBL2176911.
